System: Human alphaherpesvirus 2
Experiment: Antiviral activity against Herpes simplex virus type 2 G infected in human HEL cells assessed as inhibition of virus-induced cytopathicity
Assay type: functional, organism-based
Conditions: Human alphaherpesvirus 2, strain G
pEC50: −log10 of the molar value.
Listed here: items and their measured pEC50.

Here is how some compounds turned out for pEC50.
O=c1[nH]c(=O)n(C2C=CC(O)C2)cc1-c1ccco1 (centres undefined) : < 4.00
O=c1[nH]c(=O)n(C2C=CC(O)C2)cc1-c1cccs1 (centres undefined) : < 5.40
O=c1[nH]c(=O)n(C2C=CC(O)C2)cc1-c1cncs1 (centres undefined) : < 4.00

// pEC50 lookup, key: NC(=O)c1ncn([C@@H]2O[C@H](CO)[C@@H](O)[C@H]2O)n1 [RIBAVIRIN]
< 3.60
